Target: Caspase-1 (Homo sapiens) (UniProt P29466)
Experiment: qHTS Assay for Allosteric/Competitive Inhibitors of Caspase-1;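 note: plate controls were vehicle for no effect and no substrate for full effect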
Conditions: Caspase-1 enzyme, Ac-WEHD-AFC fluorogenic rate; series mostly up to 57.5 µM
Source text: NIH Molecular Libraries Screening Centers Network [MLSCN] NIH Chemical Genomics Center [NCGC] PI Name: Dr. James Wells, Dr. Enrique Perez-Paya, Dr.Janice Williams, Dr. Dennis Wolan, a person […] Concentration-response curves were fitted to the data calculated from slope of the linear regression of fluorescent intensity versus time (the rate). The concentration-effect curves were then classified based on curve quality (r2), response magnitude and degree of measured activity. […]
Screen size: about 75,000 compounds; about 20 (0.03%) were called active. Another 1% or so got no clear call; they are omitted. Not all results are given here.

Molecule	activity change, negative = inhibition
CC1CCCCN1CCCNC(=O)c1ccc(-n2c(=O)c(=O)[nH]c3ccccc32)cc1 (centres undefined)	inactive
CN1CC(=O)N=C1N	inactive
O=C(c1cccs1)N1CCN(Cc2ccc3c(c2)OCO3)CC1	inactive
CC(=O)OCC(=O)[C@@]1(O)CCC2C3CCC4=CC(=O)CC[C@]4(C)C3C(=O)C[C@]21C (some centres undefined)	inactive
CCOC(=O)C1C(=O)C=C(c2ccc(OC)cc2)CC1c1ccco1 (centres undefined)	inactive
CCOc1ccccc1C1NC(=O)NC(C)=C1C(=O)OCc1ccco1 (centres undefined)	inactive
COc1cccc([C@H](O)Cn2cc(-c3ccc(CON=C(C)C)cc3)nn2)c1	-1.21% [at 11.5 µM] (inactive)
CC(C)C(NC(=O)OCc1ccccc1)C(=O)OCC(=O)N1C(C)CCCC1C (centres undefined)	inactive
COC(=O)[C@@H]1C[C@@]2(O)[C@@H](O)[C@@H](O)[C@@H](O)C[C@H]2N1Cc1ccc(C)s1	inactive
CCCCC/C=C/C=C/C=O	inactive
CCCCNc1nc(C)nc2c1nc(-c1ccccc1)n2CCCCN(CC)CC	inactive
C=CCNC(=O)CCCC(=O)NCC=C	inactive
O=C(O)[C@@H]1[C@@H](C(=O)O)[C@]23C[C@@]2(C(=O)O)[C@]2(C(=O)O)CCC3=C3CCCC312	-0.0959% [at 11.5 µM] (inactive)
O=C1[C@H]2[C@H]3[C@H](O)[C@H](O)C/C(=N/OCc4ccccc4)[C@H]3CC[C@@H]2C(=O)N1Cc1ccccc1	-0.986% [at 11.5 µM] (inactive)
CC(C)CO/N=C1/C[C@@H](O)[C@@H](O)[C@@H]2[C@@H]3C(=O)N(C[C@@H]4CCCO4)C(=O)[C@H]3CC[C@@H]12	-2.12% [at 11.5 µM] (inactive)
Cc1noc(C)c1CSc1nnc2ccc3ccccc3n12	inactive
COc1cccc([C@H]2Oc3ccc(OC)cc3/C(=N\OCC[C@@H]3C=C[C@H](OC(C)=O)[C@H](COC(C)=O)O3)[C@@H]2O)c1	-0.817% [at 11.5 µM] (inactive)
CCC1=C(OC(=O)N(CC)CC)N2C(=O)OC(=NCCc3c[nH]c4ccccc34)[C@]2(C)[C@H]2C1=CC[C@H]1C(=O)N(CC)C(=O)[C@H]12	inactive
CC1(C)C=CC(=O)[C@]2(C)C1CC(=O)[C@]1(C)C2CC[C@@]2(C)C(c3ccoc3)OC(=O)C3OC321 (some centres undefined)	inactive
